Exercise: state measured TGI for each of the molecules provided.
Test system: TK-10 renal
ASSAY SUMMARY: NCI tumour cell line growth inhibition, 48 h

Q: Reported TGI, molecule OC(c1ccccc1)C(F)(F)c1nc2ccccc2o1 (centres undefined) : ____
A: > 100 µM

Q: Which value of TGI has been reported for COc1ccc(C[C@H](N)C(=O)N2C[C@@H](CO)C[C@@H](n3cnc4c(N(C)C)ncnc43)C2)cc1 in the records?
A: > 100 µM

Q: Any idea what its TGI is? The molecule is C=C1CC(COc2ccc3c(C)cc(=O)oc3c2)(c2ccccc2)OC1=O (centres undefined)
A: 3.42 µM

Q: # input molecule: Cc1ccc(NC(=O)CC/C(CC(=O)C(C)(C)C)=N\Nc2ccc([N+](=O)[O-])cc2[N+](=O)[O-])cc1C ; wanted: its TGI
A: > 100 µM

Q: State the recorded TGI for this entry: Cc1ccc(-c2cc(-c3c(C)nn(C)c(=O)c3N)[nH]n2)cc1
A: > 100 µM

Q: Would you mind telling me what TGI value was observed for O=C(O)CCC(NC(=O)c1ccc(CNc2nc3ccccc3nc2C(=O)O)cc1)C(=O)O (centres undefined) ?
A: > 100 µM

Q: Requested field: TGI. Item: Nc1nc(N)c(N=Nc2ccc(C(=O)O)c(O)c2)c(N)n1
A: > 100 µM

Q: What does the record list as TGI for Nc1ccccc1N=Nc1c(S(=O)(=O)O)cc2cc(S(=O)(=O)O)cc(O)c2c1O ?
A: > 100 µM

Q: What TGI value was documented for this molecule, c1ccc(C2=Nc3cccc4cccc(c34)N2)cc1 ?
A: > 72 µM

---

Tested on: OVCAR-8 ovarian
ASSAY SUMMARY: NCI tumour cell line growth inhibition, 48 h
Answer each item with its documented TGI.

Q: If you can, please state the reported TGI value of COc1ccccc1NC(=S)Nc1cc(C)ccn1 .
A: > 100 µM

Q: Please give the measured TGI for this molecule: O=C(/C=C/c1ccc(O)c(O)c1)NCCc1ccc(-c2ccccc2)cc1
A: > 100 µM

Q: Query (molecule): O=C1[C@H](Cl)[C@H]2c3cc4ccccc4nc3Oc3ccccc3N12 ; field requested: TGI
A: > 100 µM

Q: Recorded TGI for COc1ccc(Nc2nc3ccccc3nc2C(=O)O)cc1OC , please?
A: > 100 µM

Q: Quick check: TGI of NC(N)=NS(=O)(=O)c1ccc(NC(=O)c2ccc3[nH]c4ccccc4c(=O)c3c2)cc1 ?
A: > 100 µM

Q: What value of measured TGI is listed for COc1ccc2c(CCNS(=O)(=O)c3ccccc3)c(C(C)=O)[nH]c2c1 ?
A: > 100 µM

Q: Which measured TGI value corresponds to CCOC(=O)NC(=O)c1cn(CCN2CCNCC2)c(=O)[nH]c1=O ?
A: > 100 µM

Q: # get_value(readout='TGI', item= COc1cccc2cc(C(=O)Nc3ccccn3)c(=N)oc12 )
A: > 100 µM

Q: Can you look up the measured TGI of [O-][n+]1c(-c2ccccc2)c2nc3ccccc3nc2c2ccccc21 for me?
A: > 100 µM

Q: Query: TGI; subject: COC(=O)C(C(=O)C(=O)Nc1ccc(OC)cc1[N+](=O)[O-])c1nc2cc(C)c(C)cc2[nH]c1=O (stereo not given)
A: > 100 µM

Q: What value of TGI has been reported for the following molecule? CC(=N)N(C)O
A: > 100 µM

Q: Fill in: TGI of N#Cc1c(N)nc(N2CCSCC2)c(C#N)c1-c1ccc(O)cc1 is ___
A: > 100 µM

Q: Which TGI is reported for this molecule? O=C1C(=O)N(c2cccc(C(F)(F)F)c2)C(=O)C(=O)C1c1nc2ccccc2s1
A: > 53.8 µM

Q: What value of TGI has been recorded for this entry: CC(=O)Oc1c2oc3cc(O)c(O)cc3c2c(OC(C)=O)c2oc3cc(O)c(O)cc3c12
A: 50.2 µM

Q: Entry COC(=O)C(=O)C(C(=O)C=C(C)C)C(=O)C(=O)Nc1nc2ccc([N+](=O)[O-])cc2s1 (stereo not given) : reported TGI = ?
A: > 100 µM

Q: For the molecule CC(O[Si](c1ccccc1)(c1ccccc1)C(C)(C)C)[C@H](NC(=O)OC(C)(C)C)C(=O)O (stereo not given in full) , what TGI is on record?
A: > 100 µM

Q: Name the reported TGI value associated with the molecule CCOC(=O)c1csc(NC(=O)COc2cccc(/C=C3\CSc4ccccc4C3=O)c2)n1
A: 6.97 µM

Q: What measured TGI goes with C=C1CC(COc2ccc3c(C)cc(=O)oc3c2)(c2ccccc2)OC1=O (stereo not given) ?
A: 5.57 µM

Q: Requested read-out: TGI. Entry: CC[C@]12C=CCN3CC[C@@]4(c5ccc(OC)cc5N(C)[C@H]4[C@@](O)(C(=O)OC)[C@@H]1OC(=O)CCC(=O)N[C@H](Cc1c[nH]c4ccccc14)C(=O)OC)[C@@H]32
A: 35 µM

Q: Given the molecule Cc1cn2c(/C=C3/C(=O)Nc4ccc(F)cc43)c(C)nc2s1 , what is its reported TGI?
A: > 50 µM
